B1: Kinesin-like protein KIF16B, residues 1213 to 1273; numbered along this chain, Q96L93 (parent)
chain: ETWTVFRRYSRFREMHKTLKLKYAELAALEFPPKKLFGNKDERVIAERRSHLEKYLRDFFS

Variants of: B1
MEASUREMENT DESCRIPTION: abundance fitness (aPCA) (normalised: wild type 0, dead -1); higher = more abundant; growth selection in yeast, the domain comes from the species named
EXPERIMENTAL PARAMETERS: Homo sapiens
# abundance fitness per record follows
REPORTED METRIC: abundance fitness

> print(dat)
    mutation  value.observed
 1      S61T          -0.296
 2      E47M          -0.053
 3      F37V          -0.202
 4      E30V           0.372
 5       R7Q           0.164
 6      G38H          -0.151
 7      E47N           0.099
 8       V5I          -0.044
 9      A46T           0.242
10      F31N          -0.703
11      E30Y           0.322
12      F59I          -0.031
13      L36W            0.27
14       R8E          -0.494
15      K54M          -0.327
16       W3S          -0.152
17      A28S          -0.129
18      F31T          -0.949
19      A28P          -0.424
20      R57H            -0.6
21       F6M          -0.443
22      R48E          -0.374
